This collection of values is drawn from PubChem BioAssay (NCATS).

Test system: PC26
assay: qHTS profiling for inhibitors of Plasmodium falciparum proliferation (AID 504749); note: nearly all actives have a fitted effect of over 60% in size; note: potency is the fitted concentration of half-maximal effect
details: P. falciparum in erythrocytes, SYBR Green DNA, 72 h; series mostly up to 28.7 µM
Inconclusive results are not listed. Calls of active or inactive are those of the source. Calls come from the whole dose curve; as a rule, active = well fitted inhibition curve with a large enough effect; inconclusive = small, poorly fitted or top-dose-only effect; inactive = flat fitted curve, though single readings scatter.
assayReadout: Potency

• Nc1nc(F)nc2c1ncn2[C@@H]1O[C@H](CO)[C@@H](O)[C@H]1O = inactive
• O=C(OC[C@@H]1O[C@@](O)(COC(=O)c2cccnc2)[C@H](OC(=O)c2cccnc2)[C@H]1OC(=O)c1cccnc1)c1cccnc1 = inactive
• CN(C)CC[C@@](O)(c1ccccc1)c1ccccc1Cl = 7.57 µM (active)
• C[C@]12CC[C@@H]3c4ccc(O)cc4CC[C@H]3[C@@H]1C[C@H](O)C2O (stereo partly drawn) = inactive
• C=C1CCC(O)C/C1=C/C=C1\CCC[C@]2(C)[C@@H]([C@H](C)/C=C/[C@H](C)C(C)C)CC[C@@H]12 (stereo partly drawn) = inactive
• C=C[C@H]1CN2CCC1C[C@H]2[C@H](O)c1ccnc2ccc(OC)cc12 (stereo partly drawn) = 0.601 µM (active)
• CO/N=C(/C(=O)N[C@@H]1C(=O)N2C(C(=O)O)=C(CSc3nnnn3C)CS[C@H]12)c1csc(N)n1 = inactive
• CC1(C)SC2C(NC(=O)C(C(=O)O)c3ccccc3)C(=O)N2C1C(=O)O (stereo not drawn) = inactive

---

Test system: CP211
assay: qHTS profiling for inhibitors of Plasmodium falciparum proliferation (AID 504749); note: nearly all actives have a fitted effect of over 60% in size
details: P. falciparum in erythrocytes, SYBR Green DNA, 72 h; series mostly up to 28.7 µM
Results filed as inconclusive are left out. The source made the active and inactive calls. Calls follow the shape of the dose curve; as a rule, active = well fitted inhibition curve with a large enough effect; inconclusive = small, poorly fitted or top-dose-only effect; inactive = flat fitted curve, though single readings scatter.
Outcome codes: y for active, n for inactive

- Nc1ncn(C2C[C@H](O)[C@@H](CO)O2)c(=O)n1 (some centres undefined): n
- CC1(C)C2CC[C@]1(C)[C@@H](O)C2: n
- OC[C@@H]1O[C@](CO)(O[C@H]2O[C@H](CO)[C@@H](O)[C@H](O)[C@H]2O)[C@H](O)[C@H]1O: n
- C=C[C@@]1(C)C[C@H](OC(=O)CSC(C)(C)CNC(=O)[C@@H](N)C(C)C)[C@@]2(C)C(C)CC[C@@]3(CCC(=O)[C@@H]32)[C@H](C)[C@H]1O (some centres undefined): y

---

Tested on: PC49
assay: qHTS profiling for inhibitors of Plasmodium falciparum proliferation (AID 504749); note: nearly all actives have a fitted effect of over 60% in size
details: P. falciparum in erythrocytes, SYBR Green DNA, 72 h; series mostly up to 28.7 µM
Records with an inconclusive call do not appear. Calls of active or inactive are those of the source. Calls come from the whole dose curve; as a rule, active = well fitted inhibition curve with a large enough effect; inconclusive = small, poorly fitted or top-dose-only effect; inactive = flat fitted curve, though single readings scatter.
Outcome codes: active, inactive

• Cc1cnc(C(=O)O)cn1 = inactive
• Cc1cn([C@H]2CC(F)[C@@H](CO)O2)c(=O)[nH]c1=O (some centres not stated) = inactive
• Nc1nc(F)nc2c1ncn2[C@@H]1O[C@H](CO)[C@@H](O)[C@H]1O = inactive
• COc1cc(/C=C2\CCC/C(=C\c3ccc(O)c(OC)c3)C2=O)ccc1O = active
• CC(C)C(=O)OCC(=O)[C@@]12OC(C3CCCCC3)O[C@@H]1CC1C3CCC4=CC(=O)C=C[C@]4(C)C3[C@@H](O)C[C@@]12C (some centres not stated) = active
• C[n+]1c2cc(N)ccc2cc2ccc(N)cc21 = active
• CC(=O)N1CC(O)CC1C(=O)O (configuration not stated) = inactive
